assay_system: T1, Mouse BSSL, recombinant (mouse, UniProt Q64285 21-599)
T1 construct: Bought (R&D Systems, Cat. no 5658-CE); also called mBSSL; murine BSSL
T1 sequence: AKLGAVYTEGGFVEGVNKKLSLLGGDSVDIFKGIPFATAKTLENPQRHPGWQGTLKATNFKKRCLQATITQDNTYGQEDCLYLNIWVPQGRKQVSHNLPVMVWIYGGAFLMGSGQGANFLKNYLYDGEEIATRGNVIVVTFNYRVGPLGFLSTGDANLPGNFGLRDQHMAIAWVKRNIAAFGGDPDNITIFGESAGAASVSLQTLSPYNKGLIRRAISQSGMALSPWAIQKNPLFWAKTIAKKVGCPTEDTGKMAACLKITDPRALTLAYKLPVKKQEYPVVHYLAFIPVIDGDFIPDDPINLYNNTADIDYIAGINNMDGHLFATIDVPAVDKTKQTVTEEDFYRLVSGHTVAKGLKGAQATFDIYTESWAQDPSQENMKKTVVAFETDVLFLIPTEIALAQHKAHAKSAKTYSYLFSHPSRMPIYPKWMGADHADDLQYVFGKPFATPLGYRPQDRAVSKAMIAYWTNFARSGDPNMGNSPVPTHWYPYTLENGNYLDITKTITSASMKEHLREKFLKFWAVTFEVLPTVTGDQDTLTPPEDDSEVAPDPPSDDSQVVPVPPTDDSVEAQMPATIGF
test_description: SPR steady state, hIgG4 S228P captured by anti-Fab
Each entry below carries its reported pKd.
Answer as the number alone; pKd is minus log10 of concentration in mol/L.

binder	pKd
S-SL048-17 hIgG4 S228P (antibody, V domains shown, Tested as human IgG4 S228P) VH: QVQLVQSGAEVKKPGASVKVSCKASGYTFTSYNMHWVRQAPGQGLEWMGVINPGDGYTSYTQKFKGRVTMTRDTSTSTVYMELSSLRSEDTAVYYCARDYYGSSPLGYWGQGTLVTVSS VL: DIQMTQSPSSLSASVGDRVTITCRASQSISYLNWYQQKPGKAPKLLIYAASKLPSGVPSRFSGSGSGTDFTLTISSLQPEDFATYYCQQRSSSPTFGQGTKLEIK	7.17

Supply reported pKd belonging to this binder: S-SL048-86 hIgG4 S228P (antibody, V domains shown, Tested as human IgG4 S228P) VH: QVQLVQSGAEVKKPGASVKVSCKASGYTFTSYNMHWVRQAPGQGLEWMGVINPGDGATSYAQKFQGRVTMTRDTSTSTVYMELSSLRSEDTAVYYCARDYYGSSPLGYWGQGTLVTVSS VL: DIQMTQSPSSLSASVGDRVTITCRASQSISYLHWYQQKPGKAPKLLIYATSSLQSGVPSRFSGSGSGTDFTLTISSLQPEDFATYYCHQRSSYPTFGQGTKLEIK
6.78
